System: umbrella sedge (Cyperus difformis)
method-notes: Test B flooded paddy test plant response
Assay type: in vivo
measurement-parameters: Flood (flooded paddy test), 125 g ai/ha; scale 0 to 100, 0 no effect, 100 complete control
metric-name: Plant response rating, Sedge, Umbrella

smiles-notation: COC(=O)Oc1cnn(C)c(=O)c1-n1nc(-c2ccc(Cl)cc2)cc1C
system-name: umbrella sedge (Cyperus difformis)
metric-name: Plant response rating, Sedge, Umbrella
recorded-result: 35
//
smiles-notation: Cc1cc(-c2ccc(Cl)cc2)nn1-c1c(OS(=O)(=O)c2ccccc2[N+](=O)[O-])cnn(C)c1=O
system-name: umbrella sedge (Cyperus difformis)
metric-name: Plant response rating, Sedge, Umbrella
recorded-result: 60
//
smiles-notation: CCc1cc(-c2ccc(Cl)cc2)nn1-c1c(OC(=O)OC(C)C)cnn(C)c1=O
system-name: umbrella sedge (Cyperus difformis)
metric-name: Plant response rating, Sedge, Umbrella
recorded-result: 0
//
smiles-notation: CCc1cc(-c2ccc(Cl)c(Cl)c2)nn1-c1c(O)cnn(C)c1=O
system-name: umbrella sedge (Cyperus difformis)
metric-name: Plant response rating, Sedge, Umbrella
recorded-result: 0
//
smiles-notation: CCc1cc(-c2ccc(C(F)(F)F)cc2)nn1-c1c(OS(C)(=O)=O)cnn(C)c1=O
system-name: umbrella sedge (Cyperus difformis)
metric-name: Plant response rating, Sedge, Umbrella
recorded-result: 60
//
smiles-notation: Cc1nn(-c2ccc(Cl)cc2)cc1-c1c(O)cnn(C)c1=O
system-name: umbrella sedge (Cyperus difformis)
metric-name: Plant response rating, Sedge, Umbrella
recorded-result: 0
//
smiles-notation: Cc1cc(-c2ccc(Cl)cc2)nn1-c1c(OC(=O)OCC(C)C)cnn(C)c1=O
system-name: umbrella sedge (Cyperus difformis)
metric-name: Plant response rating, Sedge, Umbrella
recorded-result: 75

---

Measured Surinam Grass plant response rating of individual entries
Test system: surinam grass (Brachiaria decumbens)
method-notes: Test B pre-/postemergence plant response
Assay type: in vivo
measurement-parameters: Preemergence; 8 g ai/ha; scale 0 to 100
metric-name: Surinam Grass plant response rating

smiles-notation: CCc1cc(-c2ccc(C(F)(F)F)cc2)nn1-c1c(O)cnn(CC)c1=O
recorded-result: 0

smiles-notation: Cc1nn(C)c(=O)c(-n2nc(-c3ccc(C(F)(F)F)cc3)cc2C)c1O
recorded-result: 45

smiles-notation: Cc1cn(-c2ccc(Cl)cc2)nc1-c1c(O)cnn(C)c1=O
recorded-result: 10

smiles-notation: COC(=O)Oc1cnn(C)c(=O)c1-n1nc(-c2ccc(Cl)cc2)cc1C
recorded-result: 75

smiles-notation: CCc1cc(-c2ccc(Cl)cc2)nn1-c1c(OC(=O)C(C)(C)C)cnn(C)c1=O
recorded-result: 80

smiles-notation: C#CCOC(=O)Oc1cnn(C)c(=O)c1-n1nc(-c2ccc(Cl)cc2)cc1C
recorded-result: 95

smiles-notation: Cc1cc(-c2ccc(Cl)cc2)nn1-c1c(OC(=O)C(C)C)cnn(C)c1=O
recorded-result: 95

---

Test system: winter barley (Hordeum vulgare)
method-notes: Test B postemergence plant response
Type: in vivo
measurement-parameters: 8 g ai/ha, postemergence; 0-100 scale
Measured Barley plant response rating of individual entries
metric-name: Barley plant response rating

molecule: COCc1cc(-c2ccc(Br)cc2)nn1-c1c(O)cnn(C)c1=O [Compound 68]
system-name: winter barley (Hordeum vulgare)
recorded-result: 0

molecule: CCc1cc(-c2ccc(C(F)(F)F)cc2)nn1-c1c(O)cnn(CC)c1=O [Compound 67]
system-name: winter barley (Hordeum vulgare)
recorded-result: 35

molecule: CCc1cc(-c2ccc(Br)cc2)nn1-c1c(O)cnn(C)c1=O [Compound 61]
system-name: winter barley (Hordeum vulgare)
recorded-result: 70

molecule: CCc1cc(-c2ccc(Cl)cc2)nn1-c1c(OS(C)(=O)=O)cnn(C)c1=O [Compound 39]
system-name: winter barley (Hordeum vulgare)
recorded-result: 0

molecule: Cc1cc(-c2ccc(Cl)cc2)nn1-c1c(OC(=O)c2ccccc2)cnn(C)c1=O [Compound 48]
system-name: winter barley (Hordeum vulgare)
recorded-result: 0

molecule: Cc1cc(-c2ccc(Cl)cc2)nn1-c1c(OC(=O)C(C)C)cnn(C)c1=O [Compound 34]
system-name: winter barley (Hordeum vulgare)
recorded-result: 0

molecule: CCc1cc(-c2ccc(C(F)(F)F)cc2)nn1-c1c(OS(C)(=O)=O)cnn(C)c1=O [Compound 19]
system-name: winter barley (Hordeum vulgare)
recorded-result: 0
